Exercise: state measured IC50 for each of the molecules provided.
# STUDY SYSTEM: UniProtKB O95271
# ASSAY OVERVIEW: TNKS1 Assay 1 (TNKS1 Histone Ribosylation Assay Kit, biotin-labeled NAD+)
# Type: biochemical
# CONDITION NOTES: chemiluminescent readout, 384 well, Table 1
Could you give me the number in nM? Just the number is fine.

Bench note: what IC50 did CNC(=O)c1nc[nH]c1C(=O)Nc1ccc(NC(=O)c2ccc(F)cc2Cl)c(C)c1 [Example 5] show? 320

Proceed to CNC(=O)c1nc[nH]c1C(=O)Nc1ccc(NC(=O)c2c(Cl)cccc2Cl)cc1 [Example 26] 410

Proceed to O=C(Nc1ccc(NC(=O)c2[nH]cnc2C(=O)NCC(F)(F)F)cc1)c1ccc(F)cc1Cl [Example 30] 140

Proceed to CNC(=O)c1nc[nH]c1C(=O)Nc1ccc(NC(=O)c2ccc(OCCN(C)C)cc2Cl)cc1 [Example 25] 70

Proceed to CNC(=O)c1nc[nH]c1C(=O)Nc1ccc(NC(=O)c2ccncc2Cl)cc1 [Example 6] 50

Proceed to CC(NC(=O)c1ncoc1C(=O)Nc1ccc(NC(=O)c2ccc(F)cc2Cl)cc1)c1ccccc1 (stereo not drawn) [Example 8] 2270

Proceed to CC(C)NC(=O)c1nc[nH]c1C(=O)Nc1ccc(NC(=O)c2ccc(F)cc2Cl)cc1 [Example 10] 310

Proceed to CN(C)C(=O)c1nc[nH]c1C(=O)Nc1ccc(NC(=O)c2ccc(F)cc2Cl)cc1 [Example 24] 280

Proceed to CNC(=O)c1nc[nH]c1C(=O)Nc1ccc(NC(=O)c2ccc(Cl)cc2Cl)cc1 [Example 9] 110

----------
# STUDY SYSTEM: TNKS2 (Homo sapiens, UniProt Q9H2K2)
# Sequence (Q9H2K2 whole entry): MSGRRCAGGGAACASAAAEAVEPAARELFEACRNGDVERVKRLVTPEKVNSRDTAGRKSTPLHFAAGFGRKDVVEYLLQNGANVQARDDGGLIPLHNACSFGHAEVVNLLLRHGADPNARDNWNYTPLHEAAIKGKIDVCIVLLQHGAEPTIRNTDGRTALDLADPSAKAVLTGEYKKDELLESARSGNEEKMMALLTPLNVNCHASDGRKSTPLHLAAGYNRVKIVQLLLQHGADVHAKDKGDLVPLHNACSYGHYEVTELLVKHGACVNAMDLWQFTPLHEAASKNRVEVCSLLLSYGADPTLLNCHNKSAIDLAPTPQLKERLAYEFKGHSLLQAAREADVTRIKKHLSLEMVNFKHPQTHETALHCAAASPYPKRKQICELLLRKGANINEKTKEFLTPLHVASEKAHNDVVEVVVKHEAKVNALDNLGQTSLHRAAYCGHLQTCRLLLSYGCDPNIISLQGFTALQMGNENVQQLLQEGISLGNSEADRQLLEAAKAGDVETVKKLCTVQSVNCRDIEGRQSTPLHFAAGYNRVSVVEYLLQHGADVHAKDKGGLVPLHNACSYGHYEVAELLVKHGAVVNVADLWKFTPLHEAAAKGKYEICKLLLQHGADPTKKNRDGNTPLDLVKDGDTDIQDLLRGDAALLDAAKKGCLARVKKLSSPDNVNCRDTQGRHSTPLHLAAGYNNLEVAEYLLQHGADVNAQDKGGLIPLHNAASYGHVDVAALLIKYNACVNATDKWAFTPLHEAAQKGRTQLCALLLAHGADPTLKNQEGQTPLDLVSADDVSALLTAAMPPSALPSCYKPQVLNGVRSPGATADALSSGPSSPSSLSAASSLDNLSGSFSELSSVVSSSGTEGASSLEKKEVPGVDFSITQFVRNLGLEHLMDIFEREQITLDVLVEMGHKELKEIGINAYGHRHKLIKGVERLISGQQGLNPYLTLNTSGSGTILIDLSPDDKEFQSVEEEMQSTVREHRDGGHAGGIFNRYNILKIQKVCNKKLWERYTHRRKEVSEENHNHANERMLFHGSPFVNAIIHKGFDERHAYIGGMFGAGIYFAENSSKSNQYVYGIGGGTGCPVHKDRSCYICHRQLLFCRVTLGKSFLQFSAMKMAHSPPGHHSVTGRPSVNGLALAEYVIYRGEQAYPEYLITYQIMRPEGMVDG
# ASSAY OVERVIEW: Modified TNKS2 Assay 2 (auto-parsylation, [3H]-NAD+ SPA)
# Assay type: biochemical
# CONDITION NOTES: 6 nM TNKS2, 96 well
TEST READOUT: pIC50
Hey, just a heads up that pIC50 is the negative log base 10 of the concentration in molar.

Bench note: what pIC50 did `O=C(Nc1ccc(NC(=O)c2[nH]cnc2C(=O)NCC(F)(F)F)cc1)c1ccc(F)cc1Cl` show? 7.40

Proceed to `CNC(=O)c1nc[nH]c1C(=O)Nc1ccc(NC(=O)c2ccccc2C(F)F)cc1` 5.74

Proceed to `O=C(Nc1ccc(NC(=O)c2nc[nH]c2C(=O)NCCN2CCCCC2)cc1)c1ccccc1Cl` 7.70

Proceed to `CNC(=O)c1nc[nH]c1C(=O)Nc1ccc(NC(=O)c2ccccc2C)cc1` 5.74

Proceed to CC(CN1CCOCC1)NC(=O)c1[nH]cnc1C(=O)Nc1ccc(NC(=O)c2ccc(F)cc2)cc1 (centres unmarked) 6.82

Proceed to `CNC(=O)c1nc[nH]c1C(=O)Nc1ccc(NC(=O)c2ccc(S(C)(=O)=O)cc2Cl)cc1` 7.15

Proceed to `Cc1nc(C(=O)Nc2ccc(NC(=O)c3ccc(F)cc3Cl)cc2)c(C(=O)NCCN2CCCCC2)[nH]1` 7.52

Proceed to `O=C(Nc1ccc(NC(=O)c2[nH]cnc2C(=O)NCCc2ccccn2)cc1)c1ccc(F)cc1Cl` 6.82

----------
Exercise: state measured IC50 for each of the molecules provided.
# STUDY SYSTEM: TNKS1 (Homo sapiens, UniProt O95271)
# Sequence (O95271 whole entry): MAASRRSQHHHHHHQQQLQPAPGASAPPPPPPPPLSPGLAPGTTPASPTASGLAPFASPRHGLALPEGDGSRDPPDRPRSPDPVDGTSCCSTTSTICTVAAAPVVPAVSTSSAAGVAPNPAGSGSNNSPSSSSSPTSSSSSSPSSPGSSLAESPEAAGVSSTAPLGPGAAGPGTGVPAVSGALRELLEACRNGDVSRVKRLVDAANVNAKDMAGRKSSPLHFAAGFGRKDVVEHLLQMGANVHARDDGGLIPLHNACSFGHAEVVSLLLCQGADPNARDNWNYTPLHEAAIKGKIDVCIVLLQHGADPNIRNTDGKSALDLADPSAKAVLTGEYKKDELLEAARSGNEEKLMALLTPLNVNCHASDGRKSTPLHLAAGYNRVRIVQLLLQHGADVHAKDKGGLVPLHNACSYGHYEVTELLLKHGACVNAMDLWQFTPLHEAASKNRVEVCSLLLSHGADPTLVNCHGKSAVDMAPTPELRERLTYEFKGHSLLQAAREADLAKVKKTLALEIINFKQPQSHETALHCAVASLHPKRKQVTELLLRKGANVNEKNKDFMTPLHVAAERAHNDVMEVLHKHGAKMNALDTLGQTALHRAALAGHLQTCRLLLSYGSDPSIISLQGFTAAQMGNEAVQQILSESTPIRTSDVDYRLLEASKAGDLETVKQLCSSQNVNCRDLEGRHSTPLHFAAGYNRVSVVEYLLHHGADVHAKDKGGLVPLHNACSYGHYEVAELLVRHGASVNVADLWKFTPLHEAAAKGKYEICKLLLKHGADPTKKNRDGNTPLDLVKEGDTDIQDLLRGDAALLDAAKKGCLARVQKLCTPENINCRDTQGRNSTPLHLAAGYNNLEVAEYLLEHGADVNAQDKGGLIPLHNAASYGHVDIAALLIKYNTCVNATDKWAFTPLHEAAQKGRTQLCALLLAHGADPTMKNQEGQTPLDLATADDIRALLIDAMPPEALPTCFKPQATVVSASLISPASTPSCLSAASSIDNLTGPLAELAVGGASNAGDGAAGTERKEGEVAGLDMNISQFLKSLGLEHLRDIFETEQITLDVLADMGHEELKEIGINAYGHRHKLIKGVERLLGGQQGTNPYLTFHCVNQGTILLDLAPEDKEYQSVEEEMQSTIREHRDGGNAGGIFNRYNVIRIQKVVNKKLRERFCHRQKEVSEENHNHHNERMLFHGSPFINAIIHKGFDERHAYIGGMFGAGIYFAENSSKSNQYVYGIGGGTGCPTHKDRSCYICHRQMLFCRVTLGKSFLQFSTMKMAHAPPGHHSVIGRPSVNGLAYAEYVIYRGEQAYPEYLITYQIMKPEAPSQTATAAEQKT
# ASSAY OVERVIEW: TNKS1 Assay 1 (TNKS1 Histone Ribosylation Assay Kit, biotin-labeled NAD+)
# Type: biochemical
# CONDITION NOTES: chemiluminescent readout, 384 well, first table
Could you give me the number in µM? Just the number is fine.

Bench note: what IC50 did `O=C(Nc1ccc(NC(=O)c2[nH]cnc2C(=O)NCc2ccccc2)cc1)c1ccc(F)cc1Cl` show? 0.42

Proceed to `CNC(=O)c1nc[nH]c1C(=O)Nc1ccc(NC(=O)c2c(Cl)cccc2Cl)cc1` 0.4

Proceed to `CNC(=O)c1nc[nH]c1C(=O)Nc1ccc(NC(=O)c2ccc(F)cc2)cc1` 1.7

----------
# STUDY SYSTEM: TNKS1 (Homo sapiens)
# ASSAY OVERVIEW: Modified TNKS1 Assay 2 (auto-parsylation, [3H]-NAD+ SPA)
# Assay type: biochemical
# CONDITION NOTES: 6 nM TNKS1, 96 well
I'd appreciate it if you marked entries t when IC50 is lower than 60 nM and f when it is not.

Bench note: check whether O=C(Nc1ccc(NC(=O)c2nc[nH]c2C(=O)NCCN2CCCC(F)C2)cc1)c1ccc(F)cc1Cl (centres unmarked) [Example 226] shows IC50 below 60 nM t

Proceed to CNC(=O)c1nc[nH]c1C(=O)Nc1ccc(NC(=O)c2ccccc2OC)cc1 [Example 60] f

Proceed to CC(C)(CN1CCOCC1)NC(=O)c1[nH]cnc1C(=O)Nc1ccc(NC(=O)c2ccc(F)cc2Cl)cc1 [Example 207] f

Proceed to CNC(=O)c1nc[nH]c1C(=O)Nc1ccc(NC(=O)c2cnccc2Cl)cc1 [Example 254] f

Proceed to O=C(Nc1ccc(NC(=O)c2ocnc2C(=O)NCCN2CCCCC2)cc1)c1ccc(F)cc1Cl [Example 303] t

Proceed to CNC(=O)c1nc[nH]c1C(=O)Nc1ccc(NC(=O)c2ncccc2Cl)cc1 [Example 247] f

----------
Exercise: state measured pIC50 for each of the compounds provided.
# STUDY SYSTEM: TNKS1 (Homo sapiens)
# ASSAY OVERVIEW: Modified TNKS1 Assay 2 (auto-parsylation, [3H]-NAD+ SPA)
# Assay type: biochemical
# CONDITION NOTES: 6 nM TNKS1, 96 well
# Protocol: The potency of selected compounds according to the invention was assessed applying an modified in vitro inhibition assay. Here, the TNKS1 catalyzed NAD^+-dependent ribosylation of the enzyme itself (auto-parsylation) was detected using [^3H]-NAD^+ as substrate and applying the scintillation proximity assay (SPA) method to detect tritium-labeled, parsylated TNKS1. The intensity of the readout signal is proportional to the incorporated [^3H]-NAD^+. […]
Hey, just a heads up that pIC50 is the negative log base 10 of the concentration in molar.

Checklist item: pIC50 tested on TNKS1 (Homo sapiens), entry `CNC(=O)c1nc[nH]c1C(=O)Nc1ccc(NC(=O)c2ccc(N(C)C)cc2Cl)cc1` , value? 7.10

Proceed to CC(CN1CCOCC1)NC(=O)c1[nH]cnc1C(=O)Nc1ccc(NC(=O)c2ccc(F)cc2)cc1 (stereo not shown) 6.68

Proceed to `CNC(=O)c1nc[nH]c1C(=O)Nc1ccc(NC(=O)c2cc(F)ccc2Cl)cc1` 6.85

Proceed to `CNC(=O)c1nc[nH]c1C(=O)Nc1ccc(NC(=O)c2ccccc2C(F)F)cc1` 5.60

Proceed to `O=C(Nc1ccc(NC(=O)c2nc[nH]c2C(=O)NCCN2CCCCC2)cc1)c1ccc(F)cc1Br` 8.15

Proceed to `CCc1ccccc1C(=O)Nc1ccc(NC(=O)c2[nH]cnc2C(=O)NC)cc1` 5.57

Proceed to `CNC(=O)c1nc[nH]c1C(=O)Nc1ccc(NC(=O)c2cccc(OC)c2Cl)cc1` 5.03

Proceed to `CCNC(=O)c1nc[nH]c1C(=O)Nc1ccc(NC(=O)c2cc(OC)ccc2Cl)cc1` 7.05

Proceed to CCS(=N)(=O)c1ccc(C(=O)Nc2ccc(NC(=O)c3[nH]cnc3C(=O)NC)cc2)c(Cl)c1 (stereo not shown) 6.17

Proceed to `O=C(Nc1ccc(NC(=O)c2[nH]cnc2C(=O)NCCc2ccncc2)cc1)c1ccc(F)cc1Cl` 7.30

Proceed to `CNC(=O)c1nc[nH]c1C(=O)Nc1ccc(NC(=O)c2ccc(C#N)cc2)cc1` 6.00

Proceed to `Cc1nc(C(=O)Nc2ccc(NC(=O)c3ccc(F)cc3Cl)cc2)c(C(=O)NCCN2CCCCC2)[nH]1` 8.40

----------
# Test system: HEK293 FOP control reporter cell line
# ASSAY OVERVIEW: HEK293 FOP Assay (FOP control vector luciferase reporter)
# Format: cell-based
# CONDITION NOTES: Homo sapiens; HEK293 FOP control reporter cells, 16 hours, luciferase; dilution series from 50 μM
TEST READOUT: IC50

Bench note: what IC50 did `CNC(=O)c1nc[nH]c1C(=O)Nc1ccc(NC(=O)c2c(-c3ccccc3)nn(C)c2Cl)cc1` show? 26 µM

Proceed to `CCc1ccccc1C(=O)Nc1ccc(NC(=O)c2[nH]cnc2C(=O)NC)cc1` 5.5 µM

Proceed to `CNC(=O)c1nc[nH]c1C(=O)Nc1ccc(NC(=O)c2c(C)cc(C)cc2C)cc1` ≥ 50 µM

Proceed to `CNC(=O)c1nc[nH]c1C(=O)Nc1ccc(NC(=O)c2c(Cl)cccc2C(F)(F)F)cc1` ≥ 50 µM

Proceed to `CNC(=O)c1nc[nH]c1C(=O)Nc1ccc(NC(=O)c2c(F)cccc2F)cc1` 14 µM

Proceed to `CNC(=O)c1nc[nH]c1C(=O)Nc1ccc(NC(=O)c2cccc(Cl)c2Cl)cc1` 25 µM

Proceed to `CNC(=O)c1nc[nH]c1C(=O)Nc1ccc(NC(=O)c2ccc(Cl)cc2Cl)cc1` 40 µM

Proceed to `CNC(=O)c1nc[nH]c1C(=O)Nc1ccc(NC(=O)c2ccc(F)cc2Cl)cc1` ≥ 50 µM

Proceed to `CNC(=O)c1nc[nH]c1C(=O)Nc1ccc(NC(=O)c2ccncc2Cl)cc1` ≥ 50 µM

Proceed to CC(NC(=O)c1ncoc1C(=O)Nc1ccc(NC(=O)c2ccc(F)cc2Cl)cc1)c1ccccc1 (centres unmarked) ≥ 50 µM

Proceed to `CC(C)NC(=O)c1ncoc1C(=O)Nc1ccc(NC(=O)c2ccc(F)cc2Cl)cc1` ≥ 50 µM

Proceed to `O=C(Nc1ccc(NC(=O)c2[nH]cnc2C(=O)NCc2ccccc2)cc1)c1ccc(F)cc1Cl` ≥ 50 µM

Proceed to `CNC(=O)c1ncoc1C(=O)Nc1ccc(NC(=O)c2ccc(F)cc2Cl)cc1` ≥ 50 µM

Proceed to `CNC(=O)c1nc[nH]c1C(=O)Nc1ccc(NC(=O)c2ccc(N(C)C)cc2Cl)cc1` 42 µM

Proceed to `COC(=O)c1ncoc1C(=O)Nc1ccc(NC(=O)c2ccc(F)cc2Cl)cc1` ≥ 50 µM

Proceed to `CN(C)CCNC(=O)c1nc[nH]c1C(=O)Nc1ccc(NC(=O)c2ccc(F)cc2Cl)cc1` ≥ 50 µM

Proceed to `CNC(=O)c1nc[nH]c1C(=O)Nc1ccc(NC(=O)c2c(Cl)cccc2Cl)cc1` ≥ 50 µM
